assay.method.text: Stability testing (absence of water) of the composition produced in Example 3
condition.info: composition of Example 3 (absence of water), 25° C., 13 days
property: relative amount of component, stability at 25° C. after 13 days

O=C(O)c1ccccc1 27.35
COC(=O)C1=CC[C@@H]2CC[C@H]1N2C 1.33
COC(=O)[C@H]1[C@@H](OC(=O)c2ccccc2)C[C@@H]2CC[C@H]1N2C 1.19
CN1[C@H]2CC[C@@H]1[C@@H](C(=O)O)[C@@H](OC(=O)c1ccccc1)C2 3.99

====

assay.method.text: Stability testing (absence of water) of the composition produced in Example 3
condition.info: composition of Example 3 (no water added; H2O content 0.12 w/w), day 15 of reaction at 60° C.; b61 reads the values as % of the composition
Each entry below carries its recorded relative amount of component at end of reaction (start of the stability trial).
property: relative amount of component at end of reaction (start of the stability trial)

CN1[C@H]2CC[C@@H]1[C@@H](C(=O)O)[C@@H](OC(=O)c1ccccc1)C2 4.097
COC(=O)[C@H]1[C@@H](OC(=O)c2ccccc2)C[C@@H]2CC[C@H]1N2C 1.76
COC(=O)C1=CC[C@@H]2CC[C@H]1N2C 1.42
O=C(O)c1ccccc1 26.05
